- Subject Of Test: Aromatase (Homo sapiens, UniProt P11511)
- Sequence (P11511 whole entry): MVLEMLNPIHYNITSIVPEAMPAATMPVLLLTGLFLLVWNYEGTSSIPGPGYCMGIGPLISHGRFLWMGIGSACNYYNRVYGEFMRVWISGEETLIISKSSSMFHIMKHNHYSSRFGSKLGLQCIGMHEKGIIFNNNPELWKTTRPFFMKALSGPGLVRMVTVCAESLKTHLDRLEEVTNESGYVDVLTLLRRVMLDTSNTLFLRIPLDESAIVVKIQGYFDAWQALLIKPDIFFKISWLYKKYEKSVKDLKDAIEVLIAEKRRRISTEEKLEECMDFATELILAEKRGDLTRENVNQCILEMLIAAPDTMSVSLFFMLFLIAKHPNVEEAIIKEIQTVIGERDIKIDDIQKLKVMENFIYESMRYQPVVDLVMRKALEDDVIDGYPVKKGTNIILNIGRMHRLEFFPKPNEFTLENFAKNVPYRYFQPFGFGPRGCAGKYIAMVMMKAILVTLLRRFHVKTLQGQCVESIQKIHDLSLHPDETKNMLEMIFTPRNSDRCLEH
Consider the following molecules and their measured Ki readings.
Expressed in µM, but write only the number.

C[C@]12CCC(=O)C=C1C[C@@H](CCc1ccccc1)[C@@H]1[C@@H]2CC[C@]2(C)C(=O)CC[C@@H]12 ... 0.0165
C[C@]12C=CC(=O)C=C1C[C@@H](Sc1ccc(N)cc1)[C@@H]1[C@@H]2CC[C@]2(C)C(=O)CC[C@@H]12 ... 0.01

# next molecule below
Give its Ki value. Item: C[C@]12CCC(=O)C=C1C[C@@H](Cc1ccccc1)[C@@H]1[C@@H]2CC[C@]2(C)C(=O)CC[C@@H]12 0.0131

Data origin, for the record: ChEMBL document CHEMBL1149926
